# runDescription: in vitro
# conditionLabel: human, hela cells, % viability
observationType: viability at 28.5 h, 10 µM (%)
Give bare numbers, in %.

INSERT INTO results (molecule, resultnumber) VALUES
  ('CC(C)(CNC(=O)c1ccc(=O)n(CC(=O)NC2CCCCC2)c1)c1ccc(F)cc1', 83.9);

Return reported viability at 28.5 h, 10 µM values for all items listed beneath this line.
1. Cc1nc2ccc(NC(=O)CCn3nc(C)c(Cl)c3C)cc2s1
2. CN1CCN(C(=O)c2cc(Br)cnc2NCCOc2ccccc2)CC1
3. CC(C#CCN(C)C)N1C(=O)CCC1C (stereo not shown) [CBK008291G]

Result:
106
92
109

Dear colleague, could you send me viability at 28.5 h, 10 µM for each of the items below? Thanks.
1. C=CCn1c(Cc2csc(NC(=O)c3cnc(SC)n3-c3ccccc3)n2)n[nH]c1=S
2. COC(=O)CN1C(c2ccccc2O)Nc2ccc(Br)cc2C1c1ccccc1 (stereo not shown)
3. CC1CCCN(CC(O)c2ccc3c(c2)CC(C)N3C(=O)C2CC2)C1 (stereo not shown)

Result:
1: 84.3; 2: 91.1; 3: 99.2

Answer for every listed entry: what is its viability at 28.5 h, 10 µM? The entries follow.
1. CC1=CCC2C(=O)N(C(CC(C)C)C(=O)O)C(=O)C2C1 (stereo not shown)
2. CCc1cc(O)n2nc(C)c(-c3cccs3)c2n1

Result:
1. 94.6
2. 99.3

----------
Can you tell me viability at 28.5 h, 10 µM for the items I'm about to list?
# runDescription: in vitro
# conditionLabel: human, hela cells, % viability
Numbers only, in %.

Completed entries (count: 2):
INSERT INTO measurements (molecule, observationtype, resultnumber) VALUES
  ('CCCCc1cc(=O)[nH]c(N2CCOCC2)n1 [CBK003851]', 'viability at 28.5 h, 10 µM', 102),
  ('N#Cc1c(F)cccc1N1CCCC(C(=O)Nc2nncs2)C1 (stereo not drawn) [CBK306335]', 'viability at 28.5 h, 10 µM', 96.8);

Okay, now this molecule:
Task: // viability at 28.5 h, 10 µM lookup, key: CC1CCN(Cc2ccc(-c3cn(CC(=O)NCc4ccc(OC(F)(F)F)c(F)c4)nn3)cc2)CC1 [CBK167536]
Result: 87.3

----------
# runDescription: in vitro
# conditionLabel: human, hela cells, % viability
Would you mind telling me the reported viability at 28.5 h, 10 µM of each entry?

See these solved cases before continuing.
INSERT INTO measurements (compound, observationtype, result) VALUES
  ('O=C(CCC1CCCO1)NC(Cc1ccsc1)c1cccnc1 (stereo not drawn)', 'viability at 28.5 h, 10 µM', '87.6%'),
  ('CCOCCCNC(=O)c1ccc(-c2cc(Oc3ccc(OC)cc3)ncn2)cc1', 'viability at 28.5 h, 10 µM', '100%'),
  ('Cn1cc(CN2CCCC(c3cccc(Cc4ccc(Cl)cc4)n3)C2)cn1 (stereo not drawn)', 'viability at 28.5 h, 10 µM', '81.8%');

State the recorded viability at 28.5 h, 10 µM for every item in the following list.
1. O=c1[nH]c(Nc2ccccc2)nc2nccc(-c3ccccc3)c12
2. CNc1cc(C(=O)N[C@@H]2CCOC[C@H]2Oc2ccc(CO)cc2)ccn1
3. Cc1cccc(-c2ccc(CC3(C(N)=O)CCN(C(=O)CCc4ccccc4)CC3)cc2)c1
4. OCc1cccc2c3c(n(Cc4ccccc4)c12)CCCC3
5. COc1cccc(-n2ccn(C(=O)CCC3CCCC3)c2=O)c1

Result:
88.8%
98.1%
110%
91.3%
91.1%

Hi there! I need viability at 28.5 h, 10 µM for each item below, if you can.
1. CC(C)(C)COC(=O)N1CCC2(CC1)CC(=O)N(Cc1ccc(S(C)(=O)=O)cc1)C2=O
2. Cc1cnc(C(=O)N[C@H]2C3CCCCC3[C@@H]2c2ccccc2)cn1 (stereo partly drawn)

Result:
1: 91.4%; 2: 102%
